Ref: patent US20220040297A1

biological target: T1, CD3ε homodimer protein (human, UniProt P07766 23-126, limits assumed, sulfo-tag or biotin label in some ECL assays); assay: SPR, CD3ε homodimer on chip;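 note: biacore SPR with antibody variants flowed as analyte over amine-coupled CD3ε homodimer on a CM chip, bound amount of each single-residue H chain variant over that of parent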
T1 construct: also called human CD3ε homodimer protein; CD3 (CD3ε)
T1 sequence (P07766 23-126 limits assumed): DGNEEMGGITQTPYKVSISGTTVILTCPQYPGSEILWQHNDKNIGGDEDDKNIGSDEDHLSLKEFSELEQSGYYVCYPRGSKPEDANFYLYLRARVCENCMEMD
The entries below come with measured ratio of amounts bound vs CE115HA000 values attached.
Answer field: number only, no words.

These solved cases illustrate the format of a correct answer.
CE115HA000 A99I (antibody, name in Kabat numbering, V domains shown) VH: QVQLVESGGGVVQPGRSLRLSCAASGFTFSNAWMHWVRQAPGKGLEWVAQIKAKSNNYATYYAESVKGRFTISRDDSKNSLYLQMNSLKTEDTAVYYCRYVHYGIYYGVDAWGQGTTVTVSS VL: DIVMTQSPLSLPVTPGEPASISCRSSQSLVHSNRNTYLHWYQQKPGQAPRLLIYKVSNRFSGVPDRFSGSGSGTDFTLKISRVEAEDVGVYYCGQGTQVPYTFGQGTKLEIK    1.13
CE115HA000 A60D (antibody, name in Kabat numbering, V domains shown) VH: QVQLVESGGGVVQPGRSLRLSCAASGFTFSNAWMHWVRQAPGKGLEWVAQIKAKSNNYATYYDESVKGRFTISRDDSKNSLYLQMNSLKTEDTAVYYCRYVHYGAYYGVDAWGQGTTVTVSS VL: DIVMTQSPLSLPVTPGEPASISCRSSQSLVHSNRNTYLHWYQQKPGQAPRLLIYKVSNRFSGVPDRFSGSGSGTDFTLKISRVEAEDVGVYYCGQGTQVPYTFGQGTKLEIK    0.99

Now look at this entry.
Value of measured ratio of amounts bound vs CE115HA000 for the entry CE115HA000 S52cF (antibody, name in Kabat numbering, V domains shown) VH: QVQLVESGGGVVQPGRSLRLSCAASGFTFSNAWMHWVRQAPGKGLEWVAQIKAKFNNYATYYAESVKGRFTISRDDSKNSLYLQMNSLKTEDTAVYYCRYVHYGAYYGVDAWGQGTTVTVSS VL: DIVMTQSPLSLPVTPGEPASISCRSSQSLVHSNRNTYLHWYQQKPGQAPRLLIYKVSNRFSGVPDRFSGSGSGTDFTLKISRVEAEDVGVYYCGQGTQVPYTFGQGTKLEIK : 1.13
